In this section, each of the compounds is paired with its reported Mass, dry, sprout.
# System: rice (Diamant variety)
# experiment.description: Rice seed treatment with BHMPA salts: germinating power
# Format: in vivo
# condition.details: rice seed treatment, comparison with Melaphen (Table XXXIII), solution 1 · 10^−9%
Reply numerically in g/100 plantlings, unit not repeated.

Consider the following illustrative entries.
O.O.O=P([O-])(CO)CO.O=P([O-])(CO)CO.[Co+2] [Co-salt, Cobalt BHMPA Salt]; 0.28
O.O.O=P([O-])(CO)CO.O=P([O-])(CO)CO.[Mn+2] [Mn-salt, Manganese BHMPA Salt]; 0.28
O=P([O-])(CO)CO.O=P([O-])(CO)CO.[Zn+2] [Zn-salt, Zinc BHMPA Salt]; 0.32

// below: Mass, dry, sprout requested for another compound
Query: Need Mass, dry, sprout, item O=P([O-])(CO)CO.O=P([O-])(CO)CO.[Ca+2] [Ca-salt, Calcium BHMPA Salt]
Reply: 0.27
